Reference source: the NIST ThermoML archive (doi:10.1021/je301123j)

Items are presented alongside their recorded mass density.
settings: 313.15 K; 100 kPa; Liquid
Only the number, expressed in kg/m3, is required.

Use the examples below as a reference point.
- SMILES_DATA: "CCN1CCCC1=O"
  mass density, kg/m3: 980.76
- SMILES_DATA: "OCCNCCO"
  mass density, kg/m3: 1083.51
- SMILES_DATA: "OCCN(CCO)CCO"
  mass density, kg/m3: 1112.34

The value of mass density measured for the compound NCCO turned out to be 1000.06

====

settings: 293.15 K; 100 kPa; Liquid
// reported mass density for each item listed
State just the number; it will be interpreted in kg/m3.

- SMILES_DATA: "CCN1CCCC1=O"
  READOUT_UNIT: "kg/m3"
  mass density: 997.91
- SMILES_DATA: "NCCO"
  READOUT_UNIT: "kg/m3"
  mass density: 1015.93
- SMILES_DATA: "OCCN(CCO)CCO"
  READOUT_UNIT: "kg/m3"
  mass density: 1123.51

Attention now turns to another entry.
Record summary for OCCNCCO : reported mass density = 1096.45

====

conditions: 293.15 K, Ring tensiometer
Recorded surface tension liquid-gas values for a group of molecules are listed next.
# value in mN/m; strip the unit string

The examples below pair each entry with its known result.
- MOLECULE: "NCCO [2-aminoethan-1-ol]"
  QUANTITATIVE_READOUT: 49.7
- MOLECULE: "CCN1CCCC1=O [1-ethyl-2-pyrrolidinone]"
  QUANTITATIVE_READOUT: 36.5
- MOLECULE: "OCCNCCO [diethanolamine]"
  QUANTITATIVE_READOUT: 47.4

Moving on to another molecule below.
Item: OCCN(CCO)CCO [triethanolamine] | surface tension liquid-gas: 46.3

====

details: 313.15 K; 100 kPa; Liquid
± gives the expanded uncertainty stated by the source.
Each entry below lists one item and its recorded viscosity value.
Please format your answer as a value with the unit trailing.

// sample CCN1CCCC1=O [1-ethyl-2-pyrrolidinone] , its viscosity was 1.515 ± 0.023 mPa·s

Lab note: NCCO [2-aminoethan-1-ol] gave viscosity of 9.776 ± 0.1 mPa·s

The molecule identified as OCCN(CCO)CCO [triethanolamine] registered its viscosity at 204.57 ± 9.8 mPa·s

So for OCCNCCO [diethanolamine] , the logged viscosity turned out to be 191.32 ± 8.8 mPa·s
